# System: RPMI-8226 leukemia
# PROCEDURE DETAILS: NCI tumour cell line growth inhibition, 48 h
Where a SMILES comes first, the peptide text is derived from it. [ ]: non-standard residue; d: D form. The star is where a group is joined. Phe(2-OMe) = COc1ccccc1C[CH](N)C(=O)O; Cbz = O=C(OCc1ccccc1)*; OBn = c1ccc(CO*)cc1
REPORTED METRIC: TGI

>  <MOLECULE>
COc1c(Cl)nc2ccccc2c1N=[N+]=[N-]

>  <TARGET SYSTEM>
RPMI-8226 leukemia

>  <REPORTED METRIC>
TGI

>  <VALUE>
> 100 µM

$$$$
>  <MOLECULE>
COc1cccc(C2c3cc4c(cc3OC(NNc3ccccc3)C2C)OCO4)c1OC (stereo unspecified)

>  <TARGET SYSTEM>
RPMI-8226 leukemia

>  <REPORTED METRIC>
TGI

>  <VALUE>
> 100 µM

$$$$
>  <MOLECULE>
CCCCc1ccc(N2C(=O)c3cc([N+](=O)[O-])cnc3S2(=O)=O)cc1

>  <TARGET SYSTEM>
RPMI-8226 leukemia

>  <REPORTED METRIC>
TGI

>  <VALUE>
> 100 µM

$$$$
>  <MOLECULE>
Cc1ccccc1N1C(N)=C(C#N)C(C#N)(C#N)C1c1ccccc1 (stereo unspecified)

>  <TARGET SYSTEM>
RPMI-8226 leukemia

>  <REPORTED METRIC>
TGI

>  <VALUE>
45.2 µM

$$$$
>  <MOLECULE>
C/C(=N\NC(=O)c1ccccc1N)c1ccccc1O

>  <TARGET SYSTEM>
RPMI-8226 leukemia

>  <REPORTED METRIC>
TGI

>  <VALUE>
> 100 µM

$$$$
>  <MOLECULE>
COC(=O)C(Cc1ccccc1OC)NC(=O)C(CC(=O)OCc1ccccc1)NC(=O)OCc1ccccc1 (stereo unspecified) (Cbz-Asp(OBn)-[Phe(2-OMe)]-OMe; configuration not given here)

>  <TARGET SYSTEM>
RPMI-8226 leukemia

>  <REPORTED METRIC>
TGI

>  <VALUE>
> 100 µM

$$$$
>  <MOLECULE>
COc1ccc(CNC(=O)[C@H](Cc2ccc(O)cn2)NC(C)=O)cc1OC

>  <TARGET SYSTEM>
RPMI-8226 leukemia

>  <REPORTED METRIC>
TGI

>  <VALUE>
> 100 µM

$$$$
>  <MOLECULE>
O=c1ccc2[n+]([O-])c3ccc(O)cc3oc-2c1

>  <TARGET SYSTEM>
RPMI-8226 leukemia

>  <REPORTED METRIC>
TGI

>  <VALUE>
> 87 µM

$$$$
>  <MOLECULE>
N=C(N)c1ccc(-c2ccc(-c3cccs3)o2)cc1

>  <TARGET SYSTEM>
RPMI-8226 leukemia

>  <REPORTED METRIC>
TGI

>  <VALUE>
4.98 µM

$$$$
>  <MOLECULE>
NC(=O)c1cc(Cl)ccc1NC(=O)COc1ccccc1

>  <TARGET SYSTEM>
RPMI-8226 leukemia

>  <REPORTED METRIC>
TGI

>  <VALUE>
> 100 µM

$$$$

Q. Give RPMI-8226 leukemia TGI for `N#C/C(=C/N1C(=O)/C(=C/c2ccc([N+](=O)[O-])cc2)SC1=S)c1nc2ccccc2s1`
A. 68.7 µM
